Please provide measured IC50 at 14 days for the entries that follow.
Assay: Hematological toxicity in human CD34-positive hematopoietic stem/progenitor cell supplemented with megakaryocytic lineage assessed as reduction in cell viability incubated for 14 days by luminometric analysis
Format: cell-based

Query block: Could you tell me which IC50 at 14 days is on file for `CC(=O)N1CCC(Nc2cc(C(=O)NC[C@H](O)CN3CCc4ccccc4C3)ncn2)CC1` ?
Result block: 0.055 µM

Query block: For `CC(=O)N1CC2(CC(Nc3cc4c(cn3)C3(CC3)CN(C[C@H](O)CN3CCc5ccccc5C3)C4=O)C2)C1` , what is its reported IC50 at 14 days?
Result block: 0.106 µM
